experiment: Tolerability in Balb/c mice, body and organ weights (Example 14); assay type: in vivo; settings: male Balb/c mice, 50 mg/kg s.c. twice a week for four weeks (8 treatments), end of study (day 27)
Strand notation (5' to 3'): a small letter for the sugar, then the base; units joined by * are phosphorothioate-linked, units joined directly phosphodiester-linked; [ ] holds rarer units or linkages, { } end groups; capitals alone tell only the bases. k = constrained ethyl (cEt); [5mC] = 5-methylcytosine; d = 2'-deoxy (DNA)
QUANTITY: Liver weight (g)
All answers are understood in g, so give the number only.

## Task Fill in the blank: the reported Liver weight of 958596 (kA*kG*k[5mC]*dA*dG*dT*dT*dA*dA*dG*d[5mC]*dA*d[5mC]*kT*kT*kT; antisense) [compound 958596] is ____.
## Result 2.11

## Task Fill in the blank: the reported Liver weight of 958622 (kG*kA*kT*dA*dT*dT*d[5mC]*d[5mC]*dG*d[5mC]*dA*dT*dT*kG*k[5mC]*k[5mC]; antisense) [compound 958622] is ____.
## Result 0.92

## Task Fill in the blank: the reported Liver weight of 958497 (kA*kT*kA*dT*dG*dG*dA*dA*dA*dT*dT*dG*dT*k[5mC]*kT*k[5mC]) [compound 958497] is ____.
## Result 1.31
